system: FLT3-ITD (Homo sapiens)
assay-explanation: ADP Glo kinase assay, FLT3-ITD
condition-details: Km ATP 100 μM, read-out: Enzymatic inhibition, Ki, FLT3-ITD
result-type: Ki (nM)
Write the answer as a number in nM, unit excluded.

# molecule, Ki / nM
data = [
    ("CCS(=O)(=O)N1CCN(c2ccc(Nc3nccc(-c4cnc5ccc(Br)cn45)n3)cn2)CC1 [Compound 59]", 86),
    ("Fc1cnc(Nc2ccc(N3CCOCC3)nc2)nc1-c1cnc2ccccn12 [Compound 15]", 15),
    ("COC(=O)N1CCC(c2ccc(Nc3ncc(F)c(-c4cnc5ccc(-c6ccccc6)cn45)n3)cn2)CC1 [Compound 29]", 257),
]

Consider now this further molecule.
q: Could you tell me which Ki is on file for CN(C)c1ccc(Nc2nccc(-c3cnc4ccc(-c5ccccc5)cn34)n2)cn1 [Compound 66] ?
a: 220
